assay: Selectivity ratio of IC50 for ovine recombinant COX-1 to IC50 for human recombinant COX-2

[
  {
    "compound": "COc1ccc2cc(C(C)c3nc4s/c(=C\\c5ccc(Br)s5)c(=O)n4n3)ccc2c1 (stereo not given)",
    "censor-symbol": "=",
    "Ratio IC50": 2.3
  },
  {
    "compound": "COc1ccc2cc(C(C)c3nc4s/c(=C\\c5ccc(C(C)C)cc5)c(=O)n4n3)ccc2c1 (stereo not given)",
    "censor-symbol": "<",
    "Ratio IC50": 0.796
  },
  {
    "compound": "COc1ccc2cc(C(C)c3nc4s/c(=C\\C(C)=C\\c5ccccc5)c(=O)n4n3)ccc2c1 (stereo not given)",
    "censor-symbol": "=",
    "Ratio IC50": 2.63
  },
  {
    "compound": "COc1ccc2cc(C(C)c3nc4s/c(=C\\c5cccc6ccccc56)c(=O)n4n3)ccc2c1 (stereo not given)",
    "censor-symbol": "=",
    "Ratio IC50": 1.25
  },
  {
    "compound": "COc1ccc2cc(C(C)c3nc4s/c(=C\\c5ccc(C)s5)c(=O)n4n3)ccc2c1 (stereo not given)",
    "censor-symbol": ">",
    "Ratio IC50": 4.87
  }
]

Data origin: ChEMBL document CHEMBL3400056
